Measured Target: histamine receptor, H1 (Bos taurus, UniProt P30546)
Construct: from tissue; host or cells: bovine cerebellar membranes (per earlier reading)
Sequence (P30546 whole entry): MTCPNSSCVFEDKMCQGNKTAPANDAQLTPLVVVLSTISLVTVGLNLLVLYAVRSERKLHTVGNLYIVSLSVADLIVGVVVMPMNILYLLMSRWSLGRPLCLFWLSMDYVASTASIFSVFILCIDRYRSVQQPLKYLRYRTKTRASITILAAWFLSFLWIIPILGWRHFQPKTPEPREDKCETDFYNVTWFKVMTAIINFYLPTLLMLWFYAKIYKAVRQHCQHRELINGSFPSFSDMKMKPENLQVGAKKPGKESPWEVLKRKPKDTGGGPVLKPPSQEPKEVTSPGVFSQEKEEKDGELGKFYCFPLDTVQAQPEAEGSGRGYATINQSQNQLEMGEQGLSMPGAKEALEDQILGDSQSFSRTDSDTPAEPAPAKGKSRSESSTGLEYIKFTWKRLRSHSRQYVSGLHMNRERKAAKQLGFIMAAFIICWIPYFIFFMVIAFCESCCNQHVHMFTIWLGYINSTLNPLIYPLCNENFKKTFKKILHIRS
Assay Info: H1 binding assay, displacement of [3H]Pyrilamine, bovine cerebellar membranes
Condition Details: reference compounds; bovine cerebellar membranes, [3H]Pyrilamine 2.0 nM; read-out: Ki

Compound	Ki
CN(C)CCCSC(=N)N [Dimaprit, reference compound]	> 10 µM

* * *

Measured Target: cloned muscarinic - M3 binding site (Homo sapiens, UniProt P20309)
Construct: expressed in transfected cells; host or cells: CHO cells
Sequence (P20309 whole entry): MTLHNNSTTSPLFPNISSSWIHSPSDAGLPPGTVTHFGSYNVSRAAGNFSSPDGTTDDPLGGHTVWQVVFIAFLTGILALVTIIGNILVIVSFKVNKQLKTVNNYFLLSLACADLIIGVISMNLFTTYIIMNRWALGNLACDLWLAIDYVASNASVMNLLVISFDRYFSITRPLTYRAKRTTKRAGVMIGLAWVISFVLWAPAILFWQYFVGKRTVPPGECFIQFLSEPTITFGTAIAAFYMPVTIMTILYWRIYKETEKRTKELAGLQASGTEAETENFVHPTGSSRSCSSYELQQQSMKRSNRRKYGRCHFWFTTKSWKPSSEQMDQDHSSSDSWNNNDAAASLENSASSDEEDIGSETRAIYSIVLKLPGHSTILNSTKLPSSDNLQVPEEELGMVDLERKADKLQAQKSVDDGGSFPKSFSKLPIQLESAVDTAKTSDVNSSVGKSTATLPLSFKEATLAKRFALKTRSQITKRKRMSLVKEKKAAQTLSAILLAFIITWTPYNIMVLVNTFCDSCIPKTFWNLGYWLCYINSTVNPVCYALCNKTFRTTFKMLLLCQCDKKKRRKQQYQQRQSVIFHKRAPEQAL
Assay Info: Muscarinic M3 binding assay, [3H]-Scopolamine N-Methyl Chloride, human recombinant expressed in CHO cells
Condition Details: reference compounds; M3 human recombinant in CHO cells; read-out: Ki
pKi: −log10 of the molar value.

Compound	pKi
COc1ccccc1CNCCCCCCNCCCCCCCCNCCCCCCNCc1ccccc1OC [Methoctramine, reference compound]	6.15

* * *

Measured Target: cloned muscarinic - M3 binding site (Homo sapiens)
Construct: expressed in transfected cells; host or cells: CHO cells
Assay Info: Muscarinic M3 binding assay, [3H]-Scopolamine N-Methyl Chloride, human recombinant expressed in CHO cells
Condition Details: Series 11 compounds, Table 5; unit inferred; receptor source not given; read-out: M3 Ki

Compound	Ki
CC(C)COC(=O)CCN1CCC(=C(c2ccccc2)c2ccccc2)CC1 [Compound 11e]	710 nM
O=C(CCN1CCC(=C(c2ccccc2)c2ccccc2)CC1)OC1CCOCC1 [Compound 11i]	1030 nM
O=C(O)CCN1CCC(=C(c2ccccc2)c2ccccc2)CC1 [Compound 11a]	> 10000 nM
O=C(CCN1CCC(=C(c2ccccc2)c2ccccc2)CC1)OC1CCOC1 (centres unmarked) [Compound 11h]	603 nM
CC(C)OC(=O)CCN1CCC(=C(c2ccccc2)c2ccccc2)CC1 [Compound 11d]	2700 nM

* * *

Entries and their Ki values follow.
Measured Target: histamine receptor, H1 (Bos taurus)
Construct: from tissue; host or cells: bovine cerebellar membranes (per earlier reading)
Assay Info: H1 binding assay, displacement of [3H]Pyrilamine, bovine cerebellar membranes
Condition Details: Table 6; read-out: Receptor Binding Data (Ki nM) H1
Parameter Measured: Ki (nM)

Compound	Parameter Measured	Measured Value
O=C(O)CCCN1CCC(OC(c2ccccc2)c2ccccc2)CC1 [Compound 53a]	Ki	16.1
O=C(O)CCN1CCC(=C2c3ccccc3COc3ccccc32)CC1	Ki	62.5
CC(C)OC(=O)CN1CCC(=C2c3ccccc3COc3ccccc32)CC1 [dox7d-oxalate]	Ki	198

* * *

Measured Target: muscarinic1 binding site (Bos taurus, UniProt F1N5C5)
Sequence (F1N5C5 1-460): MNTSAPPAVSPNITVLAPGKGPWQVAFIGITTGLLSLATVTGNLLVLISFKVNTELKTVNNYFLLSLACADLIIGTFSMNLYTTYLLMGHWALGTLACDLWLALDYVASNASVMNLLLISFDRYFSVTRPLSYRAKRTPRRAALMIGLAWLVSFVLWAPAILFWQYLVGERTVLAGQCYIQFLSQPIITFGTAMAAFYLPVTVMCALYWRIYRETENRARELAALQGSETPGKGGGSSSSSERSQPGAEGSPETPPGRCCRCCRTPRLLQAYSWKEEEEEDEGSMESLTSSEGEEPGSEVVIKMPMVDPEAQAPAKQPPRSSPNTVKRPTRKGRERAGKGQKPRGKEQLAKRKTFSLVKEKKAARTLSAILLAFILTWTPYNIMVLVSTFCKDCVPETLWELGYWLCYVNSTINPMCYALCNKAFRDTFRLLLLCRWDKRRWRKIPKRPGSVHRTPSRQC
Assay Info: biochemical
Readings of Ki for the listed compounds
Parameter Measured: Ki

Compound	Measured Target	Measured Value
CN1[C@@H]2CC[C@H]1C[C@@H](OC(=O)C(CO)c1ccccc1)C2 (some centres unmarked)	muscarinic1 binding site (Bos taurus, UniProt F1N5C5)	0.4 nM
Cc1scc2c1N(C(=O)CN1CCN(C)CC1)c1ccccc1NC2=O [Telenzepine]	muscarinic1 binding site (Bos taurus, UniProt F1N5C5)	64.5 nM

These entries and their values trace back to patent US20040142972A1.
